Parameter growth inhibition: see the listing below.
assay: NCI Yeast Anticancer Drug Screen. Data for the mlh1 rad18 strain (AID 175); conditions: S. cerevisiae mlh1 rad18 strain growth inhibition; at 5.0 µM (retest, dose inferred, filed as 0.5); stronger effect = higher value
The panel holds about 79,000 compounds, 15% with a hit somewhere; the sample as a whole holds those more often.
recordedEndpoint: growth inhibition (%)

INSERT INTO measurements (compound, recordedendpoint, measvalue) VALUES
  ('Cc1ccc(S(=O)(=O)NC2(C=O)CCC(C(C)(C)C)CC2)cc1 (stereo not given)', 'growth inhibition', 37),
  ('CCCC(=O)OCC1CC2C=CC1C2 (stereo not given)', 'growth inhibition', -1),
  ('COc1cc(-c2ccc(-[n+]3nc(Cc4ccc5c(c4)OCO5)nn3-c3ccccc3)c(OC)c2)ccc1-[n+]1nc(Cc2ccc3c(c2)OCO3)nn1-c1ccccc1', 'growth inhibition', 2),
  ('Cc1nn(C(=O)c2ccccc2O)c2c1C(c1ccc([N+](=O)[O-])cc1)SC(N)=N2 (stereo not given)', 'growth inhibition', 10),
  ('COc1c([N+](=O)[O-])cc(-c2ccccc2)cc1[N+](=O)[O-]', 'growth inhibition', 26);

* * *

test: NCI Yeast Anticancer Drug Screen. Data for the mec2-1 strain (AID 157); conditions: S. cerevisiae mec2-1 strain, at 50.0 µM (retest, dose inferred, filed as 5.0), stronger effect = higher value
The panel holds about 79,000 compounds, 15% with a hit somewhere; the sample as a whole holds those more often.
recordedEndpoint: growth inhibition (%)

INSERT INTO measurements (molecule, recordedendpoint, unitssymbol, measvalue) VALUES
  ('COc1ccc(/C=N/NS(=O)(=O)c2ccc(C)cc2)cc1', 'growth inhibition', '%', 97),
  ('CCCCOC(=O)c1n[nH]c(C)c1N=NN(C)C', 'growth inhibition', '%', 99),
  ('CS/C(=N\C(=S)Nc1ccccc1)Nc1ccccc1', 'growth inhibition', '%', 94),
  ('CSc1cc2c(cc1N)Cc1ccccc1-2', 'growth inhibition', '%', 88),
  ('O=C1OC(C2OC(=O)C(=O)C2C(=O)c2ccc(Cl)cc2)C(C(=O)c2ccc(Cl)cc2)C1=O (stereo not given)', 'growth inhibition', '%', 37),
  ('C=CCOC(=O)CC(OC(C)=O)C(CC)CC(C)C (stereo not given)', 'growth inhibition', '%', 12),
  ('CC(NC(=O)C(Cc1ccccc1)NC(=O)c1ccc[n+](Cc2ccccc2)c1)C(N)=O (stereo not given)', 'growth inhibition', '%', -2),
  ('CCCCCCCCN(CCCCCCCC)CC(O)c1cc(-c2ccc(OC)cc2)nc2cc(Cl)ccc12 (stereo not given)', 'growth inhibition', '%', 86),
  ('CCOC(=O)C1=C(C)NC(C)=C(C(=O)OCC)C1c1ccnc2ccccc12', 'growth inhibition', '%', 97),
  ('O=C(C(Cl)Cl)N(O)c1ccccc1OCc1ccccc1', 'growth inhibition', '%', 73),
  ('O=[N+]([O-])c1ccc2nc(Nc3ccccc3)c(Nc3ccccc3)nc2c1', 'growth inhibition', '%', 95),
  ('CCCOC(=O)CSC#N', 'growth inhibition', '%', 98),
  ('Clc1nc2ccccc2nc1N1CCCCCC1', 'growth inhibition', '%', 96),
  ('COc1cc2c(cc1O)CCN[C@@]21CS[C@H]2c3c(OC(C)=O)c(C)c4c(c3C(COC1=O)N1C2C2c3c(cc(C)c(OC)c3O)CC([C@@H]1O)N2C)OCO4 (stereo not given in full)', 'growth inhibition', '%', 99),
  ('Cn1cnc([N+](=O)[O-])c1Sc1nc2ccccc2s1', 'growth inhibition', '%', 98),
  ('CCCCCC[C@@H](O)C/C=C\CCCCCCCC(=O)OCCCC', 'growth inhibition', '%', -7),
  ('Nc1nc(-c2cccnc2)nc(N)c1N=O', 'growth inhibition', '%', 79),
  ('S=C(C(=S)N1CCOCC1)N1CCOCC1', 'growth inhibition', '%', 16),
  ('COc1ccc(CCCCC(=O)O)cc1O', 'growth inhibition', '%', -54),
  ('Cc1nnc(NS(=O)(=O)c2ccc(N=Nc3cc(N=Nc4ccc(S(=O)(=O)Nc5nnc(C)s5)cc4)c4c(NC(=O)C(Cl)Cl)cccc4c3OC(=O)C(Cl)Cl)cc2)s1 (tested in a mixture with another compound)', 'growth inhibition', '%', 24),
  ('Cc1ccc(NC(=S)SCc2ccc(Cl)cc2)cc1C', 'growth inhibition', '%', 60),
  ('CCCCCCCCCCCCS', 'growth inhibition', '%', -1),
  ('OCCCC(Sc1ccccc1)c1ccccc1 (stereo not given)', 'growth inhibition', '%', 13),
  ('COc1ccc(Cc2ccc3c(C)cc(Cl)nc3c2)cc1', 'growth inhibition', '%', 87),
  ('CCN(CC)P(=S)(c1ccccc1CCP(=S)(c1ccccc1)c1ccccc1)N(CC)CC', 'growth inhibition', '%', 21),
  ('O=C(Cc1nc2ccccc2s1)Nc1ccc2ccccc2c1', 'growth inhibition', '%', 99),
  ('COc1c(Br)c(=O)n(C)c(=O)n1C', 'growth inhibition', '%', 99),
  ('CCOC(=O)c1c(C)[nH]c(C(=O)C(N)C(=O)OCC)c1C (stereo not given)', 'growth inhibition', '%', -6),
  ('COC1=CC(=O)c2ncccc2C1=O', 'growth inhibition', '%', 83),
  ('CCCNC(=O)N(CC(C)(C)C)S(=O)(=O)c1ccc(Cl)cc1', 'growth inhibition', '%', -10),
  ('CCC12C=CCN3CCC4(c5cc(C(c6ccccn6)c6cc7ccccc7n6C)c(OC)cc5N(C)C4C(O)(C(=O)OC)C1OC(C)=O)C32 (stereo not given)', 'growth inhibition', '%', 0),
  ('O=[N+]([O-])c1cccc2nc3ccccc3c(NCCNCCO)c12', 'growth inhibition', '%', 99),
  ('CC[N+]1(C)CC2CCC(CC2)C1 (stereo not given)', 'growth inhibition', '%', -3),
  ('CCCCCNC(=O)C1C(=O)N(CCCCC)C(=O)/C1=N\N (stereo not given)', 'growth inhibition', '%', 2),
  ('COc1ccc(C(c2ccccc2C(=O)O)c2ccc(OC)c3ccccc23)c2ccccc12', 'growth inhibition', '%', 96),
  ('Cc1c(NC(=O)CCl)c(=O)oc2c(C)c3occc(=O)c3cc12', 'growth inhibition', '%', 93),
  ('Oc1c(Br)cc(Br)c2cccnc12', 'growth inhibition', '%', 97),
  ('O=C(Nc1cccnc1)c1ccc(CSc2ccc(Cl)cc2)o1', 'growth inhibition', '%', 98),
  ('C[N+](C)(C)CC(=O)N/N=C(\C(=O)NC1=C(Cl)C(=O)c2ccccc2C1=O)C(C#N)c1nc(-c2ccc([N+](=O)[O-])cc2)cs1 (stereo not given)', 'growth inhibition', '%', 97),
  ('NNC(=O)N/N=C(\CC1(O)C(=O)Nc2c(Cl)ccc(Cl)c21)c1ccc(F)cc1 (stereo not given)', 'growth inhibition', '%', 80),
  ('C=CCCCCCCCCC(=O)OCC=C', 'growth inhibition', '%', 3),
  ('Nc1nc(=Nc2ccccc2)ss1', 'growth inhibition', '%', 100),
  ('CNc1nc(N)nc(N(C)c2ccc(Br)cc2)c1N=O', 'growth inhibition', '%', 58),
  ('CC(=O)OCC1OC(SSc2ccccc2)C(OC(C)=O)C(OC(C)=O)C1OC(C)=O (stereo not given)', 'growth inhibition', '%', 69),
  ('COc1ccc2c(Cc3ccccc3)c3[n+](cc2c1OC)CCc1cc2c(cc1-3)OCO2', 'growth inhibition', '%', 97);
